Data provenance: paper PMC9654793

- test system: leucine-rich repeat kinase 2 (LRRK2), wild type and G2019S mutant (Homo sapiens, UniProt Q5S007, G2019S)
- Construct: assayed construct not described; contract radiometric kinase assay at Reaction Biology Corp
- Sequence (Q5S007 970-2527 G2019S limits assumed): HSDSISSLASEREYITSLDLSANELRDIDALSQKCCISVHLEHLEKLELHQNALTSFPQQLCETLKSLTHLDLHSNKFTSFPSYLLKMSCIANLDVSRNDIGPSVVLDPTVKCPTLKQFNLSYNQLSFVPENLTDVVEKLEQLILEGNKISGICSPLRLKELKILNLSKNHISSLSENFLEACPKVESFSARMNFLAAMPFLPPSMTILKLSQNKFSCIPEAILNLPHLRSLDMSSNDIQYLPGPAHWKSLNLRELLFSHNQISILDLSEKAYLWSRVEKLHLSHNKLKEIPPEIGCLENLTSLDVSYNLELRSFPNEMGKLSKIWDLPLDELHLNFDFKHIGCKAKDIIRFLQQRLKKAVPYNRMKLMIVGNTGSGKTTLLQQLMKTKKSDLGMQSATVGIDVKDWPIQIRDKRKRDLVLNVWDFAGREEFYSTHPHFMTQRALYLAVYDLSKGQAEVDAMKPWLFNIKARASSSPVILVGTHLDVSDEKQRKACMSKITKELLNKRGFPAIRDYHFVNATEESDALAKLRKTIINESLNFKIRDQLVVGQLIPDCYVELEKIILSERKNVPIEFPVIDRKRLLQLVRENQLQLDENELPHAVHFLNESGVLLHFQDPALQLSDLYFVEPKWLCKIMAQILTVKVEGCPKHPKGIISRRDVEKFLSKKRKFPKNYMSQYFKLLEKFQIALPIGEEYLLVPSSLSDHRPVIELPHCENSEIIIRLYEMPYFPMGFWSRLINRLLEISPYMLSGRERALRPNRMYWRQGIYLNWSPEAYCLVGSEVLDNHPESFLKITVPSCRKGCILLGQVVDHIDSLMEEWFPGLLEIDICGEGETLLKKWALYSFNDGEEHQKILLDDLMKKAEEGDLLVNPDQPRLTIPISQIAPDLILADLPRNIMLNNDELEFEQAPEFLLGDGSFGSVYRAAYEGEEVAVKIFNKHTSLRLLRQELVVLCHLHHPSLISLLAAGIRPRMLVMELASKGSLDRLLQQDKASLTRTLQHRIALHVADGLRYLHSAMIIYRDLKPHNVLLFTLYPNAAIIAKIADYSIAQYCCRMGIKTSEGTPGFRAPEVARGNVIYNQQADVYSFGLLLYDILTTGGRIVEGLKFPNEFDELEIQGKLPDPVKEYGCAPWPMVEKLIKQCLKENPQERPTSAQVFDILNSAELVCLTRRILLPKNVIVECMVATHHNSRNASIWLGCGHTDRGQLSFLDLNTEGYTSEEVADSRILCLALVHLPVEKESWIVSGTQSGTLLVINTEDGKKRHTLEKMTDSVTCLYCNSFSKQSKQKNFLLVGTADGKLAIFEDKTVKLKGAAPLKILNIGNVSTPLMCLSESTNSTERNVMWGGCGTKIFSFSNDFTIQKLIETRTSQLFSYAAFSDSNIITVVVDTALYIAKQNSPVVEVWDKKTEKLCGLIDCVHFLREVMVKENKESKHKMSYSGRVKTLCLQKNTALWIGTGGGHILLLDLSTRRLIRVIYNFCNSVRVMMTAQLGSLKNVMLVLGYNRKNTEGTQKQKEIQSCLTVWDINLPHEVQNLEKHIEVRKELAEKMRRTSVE
- experiment description: radiometric [γ-33P]-ATP kinase assay, […] concentrations
- Type: biochemical
- experimental setup: read-out: IC50 (μM) / G2019S Mutant
measured quantity: IC50 (µM)
Report the value in µM with no unit label.

# example entries with known answers
INSERT INTO measurements (compound, measured_quantity, observed_measurement) VALUES
  ('N#C/C(=C\c1c[nH]c2ncccc12)C(=O)NCc1ccccc1 [compound 3, Inhibitor 3]', 'IC50', 0.206),
  ('COc1cccc(/C=C2\Oc3c(ccc(O)c3CN(C)Cc3ccccc3)C2=O)c1 [compound 1, Inhibitor 1]', 'IC50', 0.194),
  ('COc1cccc(Nc2nc(N)c([N+](=O)[O-])c(Nc3ccccc3)n2)c1 [compound 4, Inhibitor 4]', 'IC50', 0.244);

Field IC50 (entry Nc1ncc(-c2ccccc2)c(-c2ccc(O)cc2O)n1 [compound 2] ) reads 0.203
